- assay comment: The drug is tested on Z-005 corresponding to metagenome with ENA study accession number: PRJEB37062 and ENA sample accession number: ERS12561805 for biotransformation under anaerobic condition. The drug concentrations were measured over 9 timepoints collected between 0 and 24 hours of incubation by liquid-chromatography-coupled mass spectrometry (LC–MS); further: call rule not given here
- measurement parameters: 2 µM
observable: Bacterial Biotransformation

Sample answers from the record:
>  <compound>
CC(C)NCC(O)COc1ccc(CC(N)=O)cc1 (stereo unspecified)

>  <Bacterial Biotransformation>
Compound NOT metabolized

$$$$
>  <compound>
CCOc1cc(CC(=O)N[C@@H](CC(C)C)c2ccccc2N2CCCCC2)ccc1C(=O)O [REPAGLINIDE]

>  <Bacterial Biotransformation>
Compound metabolized

$$$$
>  <compound>
CN1CCC(=C2c3ccccc3CC(=O)c3sccc32)CC1.O=C(O)/C=C/C(=O)O [KETOTIFEN FUMARATE]

>  <Bacterial Biotransformation>
Compound NOT metabolized

$$$$
>  <compound>
COC(=O)C(c1ccccc1)C1CCCCN1 (stereo unspecified) [METHYLPHENIDATE]

>  <Bacterial Biotransformation>
Compound NOT metabolized

$$$$
>  <compound>
COc1ccc(C(CN(C)C)C2(O)CCCCC2)cc1 (stereo unspecified)

>  <Bacterial Biotransformation>
Compound NOT metabolized

$$$$

In plain terms, Cc1cc(C)cc(OCC2CNC(=O)O2)c1 (stereo unspecified) has a documented Bacterial Biotransformation of Compound NOT metabolized

====

- assay comment: The drug is tested on Z-010 corresponding to metagenome with ENA study accession number: PRJEB37062 and ENA sample accession number: ERS12561810 for biotransformation under anaerobic condition. The drug concentrations were measured over 9 timepoints collected between 0 and 24 hours of incubation by liquid-chromatography-coupled mass spectrometry (LC–MS)
- measurement parameters: 2 µM
observable: Bacterial Biotransformation

>  <molecule>
COc1cc(NC(C)CCCN)c2ncccc2c1.O=P(O)(O)O.O=P(O)(O)O (stereo not given) [PRIMAQUINE PHOSPHATE]

>  <Bacterial Biotransformation>
Compound NOT metabolized

$$$$
>  <molecule>
CC(NC(C)(C)C)C(=O)c1cccc(Cl)c1 (stereo not given)

>  <Bacterial Biotransformation>
Compound NOT metabolized

$$$$
>  <molecule>
CC1Cc2ccccc2N1NC(=O)c1ccc(Cl)c(S(N)(=O)=O)c1 (stereo not given) [INDAPAMIDE]

>  <Bacterial Biotransformation>
Compound NOT metabolized

$$$$
>  <molecule>
CC(C)(C)N.CCC[C@H](N[C@@H](C)C(=O)N1[C@H](C(=O)O)C[C@@H]2CCCC[C@@H]21)C(=O)OCC

>  <Bacterial Biotransformation>
Compound metabolized

$$$$
>  <molecule>
O=C1CN2Cc3c(ccc(Cl)c3Cl)N=C2N1 [ANAGRELIDE]

>  <Bacterial Biotransformation>
Compound metabolized

$$$$
>  <molecule>
O=C(NC(Cc1cc(=O)[nH]c2ccccc12)C(=O)O)c1ccc(Cl)cc1 (stereo not given) [REBAMIPIDE]

>  <Bacterial Biotransformation>
Compound NOT metabolized

$$$$
>  <molecule>
Nc1nc(N)nc(-c2cc(Cl)ccc2Cl)n1.O=C(O)/C=C\C(=O)O [IRSOGLADINE MALEATE]

>  <Bacterial Biotransformation>
Compound NOT metabolized

$$$$
>  <molecule>
CSc1ccc2c(c1)C(N1CCN(C)CC1)Cc1ccccc1S2.O=C(O)/C=C\C(=O)O (stereo not given)

>  <Bacterial Biotransformation>
Compound metabolized

$$$$

In plain terms, CCOc1ccc2nc(S(N)(=O)=O)sc2c1 [ETHOXZOLAMIDE] has a documented Bacterial Biotransformation of Compound NOT metabolized

In plain terms, COc1cc(C(=O)NCc2ccc(OCCN(C)C)cc2)cc(OC)c1OC [TRIMETHOBENZAMIDE] has a documented Bacterial Biotransformation of Compound NOT metabolized

These entries and their values trace back to ChEMBL document CHEMBL5724914.
